Every entry's value here was drawn from the supplement of paper PMC13380429.

Test system: Vero E6 infected with SARS-CoV-2
Assay: inhibition of SARS-CoV-2 cytopathic effect; higher = more antiviral protection, active = above 15
Conditions: 1 nM; 48 h
Observable: inhibition of SARS-CoV-2 cytopathic effect (%)
Return type: number; implicit unit %.

Please look at OC[C@H]1O[C@H](O[C@H]2O[C@H](CO)[C@@H](O)[C@H](O)[C@H]2O)[C@H](O)[C@@H](O)[C@@H]1O and tell me its recorded inhibition of SARS-CoV-2 cytopathic effect on Vero E6 infected with SARS-CoV-2.
1.34

Please look at C[S+]([O-])CCCCN=C=S (stereo not given) and tell me its recorded inhibition of SARS-CoV-2 cytopathic effect on Vero E6 infected with SARS-CoV-2.
-7.22

Please look at C[C@@H]1CN([C@H]2CC[C@](C#N)(c3ccc(F)cc3)CC2)CC[C@]1(C(=O)O)c1ccccc1 and tell me its recorded inhibition of SARS-CoV-2 cytopathic effect on Vero E6 infected with SARS-CoV-2.
1.53

Please look at C=C(c1ccccc1OCc1cccc(Cl)c1)n1ccnc1 and tell me its recorded inhibition of SARS-CoV-2 cytopathic effect on Vero E6 infected with SARS-CoV-2.
-1.55

Please look at CCOC(=O)n1ccn(C)c1=S and tell me its recorded inhibition of SARS-CoV-2 cytopathic effect on Vero E6 infected with SARS-CoV-2.
-1.34

###

System: Vero E6 infected with SARS-CoV-2
Experiment: inhibition of SARS-CoV-2 cytopathic effect; higher = more antiviral protection, active = above 15
Conditions: 100 nM; 48 h
Observable: inhibition of SARS-CoV-2 cytopathic effect (%)
Return type: number; implicit unit %.

Give me measured inhibition of SARS-CoV-2 cytopathic effect, please, for this molecule: Nc1nc2c(cnn2CCc2ccccc2)c2nc(-c3ccco3)nn12
-4.65

Give me measured inhibition of SARS-CoV-2 cytopathic effect, please, for this molecule: CN[C@@H](C)[C@H]1[C@H](O)C[C@@]2(C)[C@@H]3CC[C@H]4C(C)(C)[C@@H](NC)CC[C@@]45C[C@@]35CC[C@]12C
3.9

Give me measured inhibition of SARS-CoV-2 cytopathic effect, please, for this molecule: CC(C)(C)Sc1c(CC(C)(C)C(=O)O)n(Cc2ccc(Cl)cc2)c2ccc(OCc3ccc4ccccc4n3)cc12
-1.43

Give me measured inhibition of SARS-CoV-2 cytopathic effect, please, for this molecule: Cn1c(N2CCCCS2(=O)=O)nc(C(=O)NCc2ccc(F)cc2)c(O)c1=O
-4.2

Give me measured inhibition of SARS-CoV-2 cytopathic effect, please, for this molecule: CCC(CC)O[C@@H]1C=C(C(=O)O)C[C@H](N)[C@H]1NC(C)=O [oseltamivir-carboxylate]
0.49

Give me measured inhibition of SARS-CoV-2 cytopathic effect, please, for this molecule: Nc1ncnc2c1ncn2[C@@H]1O[C@H](COP(=O)(O)O)[C@@H](O)[C@H]1O [adenosine-phosphate]
-4.25

Give me measured inhibition of SARS-CoV-2 cytopathic effect, please, for this molecule: C#CCN[C@@H]1CCc2ccccc21
-1.63

Give me measured inhibition of SARS-CoV-2 cytopathic effect, please, for this molecule: COc1ccc(CCN(C)CCCC(C#N)(c2cc(OC)c(OC)c(OC)c2)C(C)C)cc1OC (centres undefined)
-0.41

Give me measured inhibition of SARS-CoV-2 cytopathic effect, please, for this molecule: O=c1[nH]ccc2cc(OC3CCNCC3)ccc12
-0.08

Give me measured inhibition of SARS-CoV-2 cytopathic effect, please, for this molecule: CC[C@H](C)C(=O)O[C@H]1C[C@@H](C)C=C2C=C[C@H](C)[C@H](CC[C@@H]3C[C@@H](O)CC(=O)O3)[C@H]21
1.14

Give me measured inhibition of SARS-CoV-2 cytopathic effect, please, for this molecule: CC(=O)Nc1ccc(OCC(O)CNC(C)C)cc1 (centres undefined)
0.26

Give me measured inhibition of SARS-CoV-2 cytopathic effect, please, for this molecule: COc1cc2ncnc(Nc3ccc(Oc4ccccc4)cc3)c2cc1OC
0.56

Give me measured inhibition of SARS-CoV-2 cytopathic effect, please, for this molecule: Cc1c(Cl)cccc1Nc1ccccc1C(=O)O
1.25

Give me measured inhibition of SARS-CoV-2 cytopathic effect, please, for this molecule: Cc1oc(-c2ccccc2)nc1CCOc1ccc(CC2SC(=O)NC2=O)c2sccc12 (centres undefined)
0.63

Give me measured inhibition of SARS-CoV-2 cytopathic effect, please, for this molecule: C[C@H]1CNCCCN1S(=O)(=O)c1cccc2cncc(F)c12
-1.45

Give me measured inhibition of SARS-CoV-2 cytopathic effect, please, for this molecule: Cc1nnc(C(=O)NC(C)(C)c2nc(C(=O)NCc3ccc(F)cc3)c(O)c(=O)n2C)o1
2.75

Give me measured inhibition of SARS-CoV-2 cytopathic effect, please, for this molecule: O=C(c1ccc(Cl)cc1)N(Cc1ccccc1)C1CCCCC1
1.24

Give me measured inhibition of SARS-CoV-2 cytopathic effect, please, for this molecule: N=C(N)c1ccc(/C=C/c2ccc(C(=N)N)cc2O)cc1 [hydroxystilbamidine]
-5.12

Give me measured inhibition of SARS-CoV-2 cytopathic effect, please, for this molecule: CC(C)n1nc(-c2ccc3oc(N)nc3c2)c2c(N)ncnc21
1.66

Give me measured inhibition of SARS-CoV-2 cytopathic effect, please, for this molecule: Cc1c(N)nc([C@H](CC(N)=O)NC[C@H](N)C(N)=O)nc1C(=O)N[C@H](C(=O)N[C@H](C)[C@@H](O)[C@H](C)C(=O)N[C@H](C(=O)NCCc1nc(-c2nc(C(=O)NCCCNCCCCN)cs2)cs1)[C@@H](C)O)[C@@H](O[C@@H]1O[C@@H](CO)[C@@H](O)[C@H](O)[C@@H]1O[C@@H]1O[C@H](CO)[C@@H](O)[C@H](OC(N)=O)[C@@H]1O)c1cnc[nH]1
-7.1

Give me measured inhibition of SARS-CoV-2 cytopathic effect, please, for this molecule: COC(=O)C(c1ccccc1)C1CCCCN1 (centres undefined)
-1.37

Give me measured inhibition of SARS-CoV-2 cytopathic effect, please, for this molecule: Cc1cccc(-c2n[nH]cc2-c2ccc(F)c(-c3cnn(CCO)c3)c2)n1
-2.29

Give me measured inhibition of SARS-CoV-2 cytopathic effect, please, for this molecule: C[C@@H]([C@@H](O)c1ccc(O)cc1)N1CCC(O)(c2ccccc2)CC1
-2.83

Give me measured inhibition of SARS-CoV-2 cytopathic effect, please, for this molecule: Cc1ccnc(NC(=O)C(C)c2cccc(C(=O)c3ccccc3)c2)c1 (centres undefined)
2.28

Give me measured inhibition of SARS-CoV-2 cytopathic effect, please, for this molecule: NCCC(Oc1ccc(C(F)(F)F)cc1)c1ccccc1 (centres undefined)
1.92

Give me measured inhibition of SARS-CoV-2 cytopathic effect, please, for this molecule: O=C(Nc1ccccc1C(=O)NC1CCCCNC1=O)c1cc2ccccc2s1 (centres undefined)
-3.22

Give me measured inhibition of SARS-CoV-2 cytopathic effect, please, for this molecule: CC(C)OC(=O)C1=CN(C(=O)c2ccc(F)c(F)c2)CC(C)(C)c2c1[nH]c1ccccc21
-3.38

Give me measured inhibition of SARS-CoV-2 cytopathic effect, please, for this molecule: C[C@@H](c1ncncc1F)[C@](O)(Cn1cncn1)c1ccc(F)cc1F
-2.48

Give me measured inhibition of SARS-CoV-2 cytopathic effect, please, for this molecule: N=C(N)c1ccc(-c2ccc(-c3ccc(C(=N)N)cc3)o2)cc1
-3.62

Give me measured inhibition of SARS-CoV-2 cytopathic effect, please, for this molecule: C[C@@]12CC[C@@H]3[C@@](CC[C@H]4[C@@]3(C)CCC[C@@]4(C)C(=O)O)(CC1=O)C2
-0.69

Give me measured inhibition of SARS-CoV-2 cytopathic effect, please, for this molecule: CNC(=O)c1ccc(C)c(-n2c(C)cc(OCc3ccc(F)cc3F)c(Br)c2=O)c1
-3.51

Give me measured inhibition of SARS-CoV-2 cytopathic effect, please, for this molecule: CC(/C=C1\SC(=S)N(CC(=O)O)C1=O)=C\c1ccccc1
-1.17

Give me measured inhibition of SARS-CoV-2 cytopathic effect, please, for this molecule: CCOC(=O)C1=C[C@]2(CC)CCCN3CCc4c(n1c1ccccc41)[C@@H]32
4.53

Give me measured inhibition of SARS-CoV-2 cytopathic effect, please, for this molecule: O=C1CCC[C@@H]2[C@H]3C[C@@H](CN12)[C@@H]1CCCCN1C3
5.68
